Origin of values: patent US20220153853A1

molecular target: human GCGR (full-length glucagon receptor of 477 amino acids) (human, UniProt P47871 26-477); test: cell-based or functional assay
Sequence (P47871 26-477 limits assumed): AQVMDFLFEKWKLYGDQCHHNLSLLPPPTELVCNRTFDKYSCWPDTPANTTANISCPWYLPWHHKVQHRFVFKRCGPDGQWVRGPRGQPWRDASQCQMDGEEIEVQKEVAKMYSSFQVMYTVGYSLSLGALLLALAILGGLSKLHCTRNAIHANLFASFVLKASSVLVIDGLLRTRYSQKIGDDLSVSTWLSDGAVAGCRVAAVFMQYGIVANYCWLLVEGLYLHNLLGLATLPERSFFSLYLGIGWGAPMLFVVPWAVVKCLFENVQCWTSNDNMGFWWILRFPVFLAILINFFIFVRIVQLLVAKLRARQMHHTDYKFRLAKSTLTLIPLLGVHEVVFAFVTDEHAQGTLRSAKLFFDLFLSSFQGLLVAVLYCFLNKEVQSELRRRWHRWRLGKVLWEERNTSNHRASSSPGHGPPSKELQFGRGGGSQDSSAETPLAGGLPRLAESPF
Metric Name: IC50 (nM)
Please state the figure in nM; there is no need to write the unit.

hu1810-7 (antibody, human IgG4 S228P, kappa, F234A L235A, V domains shown) VH: QVQLVQSGAEVKKPGSSVKVSCKASGGTFSNYAISWVRQAPGQGLEWIGEIYPTSGNTYYNEKFKGRATLTADRSTSTMYMELSSLRSEDTAVYYCASGVITTVVSTDYFDYWGQGTLVTVSS VL: DIQMTQSPSSLSASVGDRVTITCRASLDISNYLNWYQQKPGKAVKLLIYYTSTLHSGVSSRFSGSGSGTDYTLTISSLQPEDFATYYCQQGNMVPYTFGGGTKVEIKR	119
hu1810-10 (antibody, human IgG4 S228P, kappa, F234A L235A, V domains shown) VH: QVQLVQSGAEVKKPGSSVKVSCKASGGTFSNYAISWVRQAPGQGLEWMGEIYPTSGNTYYNEKFKGRVTITADRSTSTMYMELSSLRSEDTAVYYCASGVITTVVSTDYFDYWGQGTLVTVSS VL: DIQMTQSPSSLSASVGDRVTITCRASLDISNYLNWYQLKPGKAVKLLIYYTSTLHSGVSSRFSGSGSGTEYTLTISSLQPEDFATYYCQQGNMVPYTFGGGTKVEIKR	95.6
hu1803-1 (antibody, human IgG4 S228P, kappa, F234A L235A, V domains shown) VH: EVQLVQSGAEVKKPGASVKVSCKASGYTFTDYWIEWVRQAPGQGLEWMGEILPGSTYTNYNEKFKGRVTMTRDTSTSTVYMELSSLRSEDTAVYYCARGLSTLMAVDYFDYWGQGTTVTVSS VL: DIQMTQSPSSLSASVGDRVTITCRASQDISNYLNWYQQKPGKAPKLLIYYSSTLHSGVPSRFSGSGSGTDFTLTISSLQPEDFATYYCQQTNIFPWTFGGGTKVEIKR	191
hu1803-7 (antibody, human IgG4 S228P, kappa, F234A L235A, V domains shown) VH: EVQLVQSGAEVKKPGASVKVSCKASGYTFTDYWIEWVRQAPGQGLEWIGEILPGSTYTNYNEKFKGRATFTADTSTSTAYMELSSLRSEDTAVYYCSRGLSTLMAVDYFDYWGQGTTVTVSS VL: DIQMTQSPSSLSASVGDRVTITCRASQDISNYLNWYQQKPGGAVKLLIYYSSTLHSGVPSRFSGSGSGTDYTLTISSLQPEDFATYFCQQTNIFPWTFGGGTKVEIKR	73

Item: hu1810-4 (antibody, human IgG4 S228P, kappa, F234A L235A, V domains shown) VH: QVQLVQSGAEVKKPGSSVKVSCKASGGTFSNYAISWVKQAPGQGLEWIGEIYPTSGNTYYNEKFKGKATLTADRSTSTMYMELSSLRSEDTAVYYCASGVITTVVSTDYFDYWGQGTLVTVSS VL: DIQMTQSPSSLSASVGDRVTITCRASLDISNYLNWYQQKPGKAPKLLIYYTSTLHSGVPSRFSGSGSGTDFTLTISSLQPEDFATYYCQQGNMVPYTFGGGTKVEIKR | IC50: 138
